Can you tell me IC50 for the items I'm about to list?
tested on: HCoV-229E-Luc; assay: microbe, parasite or virus in culture; type: cell-based, human alphacoronavirus HCoV-229-E; settings: Alphacoronavirus, Huh-7, 24 h, read-out: IC50 (nM) Huh7
Starred links: 1 amine or outer side, 2 acyl side, 3 side chain; linkers in the order of their positions; H or OH if unused. Non-standard residues stand in square brackets, D forms with d. Residues, ends and D or L forms follow the SMILES beside them. ξ: configuration not given here. X2 = CC(COC=O)CC(C(=O)[*:2])N(C)[*:1]; ξNle(4-Me,5-ene) = C=CC(C)CC(N)C(=O)O; X3 = CC(CO)CC(C(=O)[*:2])N(C)[*:1]; ξLeu(3ξ-OH) = CC(C)C(O)C(N)C(=O)O; NMeA = CN[CH](C)C(=O)O
Respond numerically; units are nM and should not be typed.

Lookup: In one line, give reported IC50 of the entry C=CC(C)CC1NC(=O)C(CC(C)COC=O)N(C)C(=O)C(C)N(C)C(=O)C(C(C)CC)NC(=O)C(C(O)C(C)C)NC(=O)C(C)N(C)C(=O)C(C)N(C)C1=O (stereo not drawn) [Compound C6, comptonellin F] (cyclo([X2][ξNle(4-Me,5-ene)][NMeA][NMeA][ξLeu(3ξ-OH)]I[NMeA]); configuration not given here) .
Found: 36.8

Lookup: Please give the documented IC50 of COc1cc(-c2oc3c(OC)c(OC)cc(O)c3c(=O)c2OC)ccc1O
Found: 157

Lookup: Return the recorded IC50 value; entry: C=CC(C)CC1NC(=O)C(CC(C)CO)N(C)C(=O)C(C)N(C)C(=O)C(C(C)CC)NC(=O)C(C(O)C(C)C)NC(=O)C(C)N(C)C(=O)C(C)N(C)C1=O (stereo not drawn) [Compound C4, comptonellin D] (cyclo([X3][ξNle(4-Me,5-ene)][NMeA][NMeA][ξLeu(3ξ-OH)]I[NMeA]); configuration not given here)
Found: 96.8

###

test system: HCoV-229E-Luc; test: microbe, parasite or virus in culture; format: cell-based, human alphacoronavirus HCoV-229-E; conditions: Alphacoronavirus, Huh-7, 24 h, read-out: IC50 (nM) Huh7
Starred links: 1 amine or outer side, 2 acyl side, 3 side chain; linkers in the order of their positions; H or OH if unused. Non-standard residues stand in square brackets, D forms with d. Residues, ends and D or L forms follow the SMILES beside them. ξ: configuration not given here. X4 = CC(O)C(C)CC(C(=O)[*:2])N(C)[*:1]; ξNle(4-Me,5-ene) = C=CC(C)CC(N)C(=O)O; X1 = CCC(C)CC(C(=O)[*:2])N(C)[*:1]; ξLeu(3ξ-OH) = CC(C)C(O)C(N)C(=O)O; NMeA = CN[CH](C)C(=O)O
assay-endpoint: IC50
Field: value (include unit after the number)

Lookup: Supply recorded IC50 for C=CC(C)CC1NC(=O)C(CC(C)CC)N(C)C(=O)C(C)N(C)C(=O)C(C(C)CC)NC(=O)C(C(O)C(C)C)NC(=O)C(C)N(C)C(=O)C(C)N(C)C1=O (centres unmarked) [Compound C3, comptonellin C] (cyclo([X1][ξNle(4-Me,5-ene)][NMeA][NMeA][ξLeu(3ξ-OH)]I[NMeA]); configuration not given here) here.
Found: 2.4 nM

Lookup: Quickly give me recorded IC50 for C=CC(C)CC1NC(=O)C(CC(C)C(C)O)N(C)C(=O)C(C)N(C)C(=O)C(C(C)CC)NC(=O)C(C(O)C(C)C)NC(=O)C(C)N(C)C(=O)C(C)N(C)C1=O (centres unmarked) [Compound C5, comptonellin E] (cyclo([X4][ξNle(4-Me,5-ene)][NMeA][NMeA][ξLeu(3ξ-OH)]I[NMeA]); configuration not given here)
Found: 98.5 nM
